molecular target: furin, P09958; experiment: furin cleavage Z-score vs untreated control; higher = more cleavage, active = 3.5 or more, inactive = 1 or less, 8 variable residues between constant flanks; conditions: 30 min;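 note: purified furin at 1:10 enzyme:substrate in 50 mM HEPES pH 7.5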
Sequence (P09958 whole entry): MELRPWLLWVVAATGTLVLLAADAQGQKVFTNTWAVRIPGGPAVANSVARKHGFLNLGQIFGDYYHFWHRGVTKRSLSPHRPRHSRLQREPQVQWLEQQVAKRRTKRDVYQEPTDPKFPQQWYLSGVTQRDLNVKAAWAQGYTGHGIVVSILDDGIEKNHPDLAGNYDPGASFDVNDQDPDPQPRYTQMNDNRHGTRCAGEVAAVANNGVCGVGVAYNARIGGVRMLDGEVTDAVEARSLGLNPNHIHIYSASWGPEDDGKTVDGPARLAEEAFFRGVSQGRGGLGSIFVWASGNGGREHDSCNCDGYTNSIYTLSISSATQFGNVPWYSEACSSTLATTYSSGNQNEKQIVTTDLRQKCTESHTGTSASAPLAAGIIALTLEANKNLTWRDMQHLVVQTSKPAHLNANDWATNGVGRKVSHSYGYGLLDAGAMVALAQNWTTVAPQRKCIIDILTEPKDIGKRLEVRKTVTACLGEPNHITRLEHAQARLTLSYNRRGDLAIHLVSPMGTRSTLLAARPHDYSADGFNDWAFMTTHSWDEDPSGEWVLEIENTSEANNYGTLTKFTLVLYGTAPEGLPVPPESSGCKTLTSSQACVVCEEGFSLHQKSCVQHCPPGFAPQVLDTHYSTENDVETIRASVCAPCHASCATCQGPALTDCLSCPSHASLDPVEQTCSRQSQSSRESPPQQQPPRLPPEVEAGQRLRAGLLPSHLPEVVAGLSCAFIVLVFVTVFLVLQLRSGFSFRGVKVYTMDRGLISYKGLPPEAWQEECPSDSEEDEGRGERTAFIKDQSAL
This is one part of the list. The hit rate among all sequences tested is not known here.
measured_endpoint: furin cleavage Z-score

• CALASRGARVAGNASASA [FS-267] = 0.249 (inactive)
• CAVAARRARVAGNASASA [FS-307] = 3.48
• CAASRRRARVAGNASASA [FS-1187] = 4.72 (active)
• CARSRRRSRVAGNASASA [FS-3095] = 3.48
• CALVALGINAAGNASASA [HC864] = -2.31 (inactive)
• CASPPRRARVAGNASASA [FS-1571] = 3.24
• CAESDAAARVAGNASASA [HC1129] = -1.03 (inactive)
